Target: recombinant GSK3β kinase (Homo sapiens (Human))
Sequence (P49841 whole entry): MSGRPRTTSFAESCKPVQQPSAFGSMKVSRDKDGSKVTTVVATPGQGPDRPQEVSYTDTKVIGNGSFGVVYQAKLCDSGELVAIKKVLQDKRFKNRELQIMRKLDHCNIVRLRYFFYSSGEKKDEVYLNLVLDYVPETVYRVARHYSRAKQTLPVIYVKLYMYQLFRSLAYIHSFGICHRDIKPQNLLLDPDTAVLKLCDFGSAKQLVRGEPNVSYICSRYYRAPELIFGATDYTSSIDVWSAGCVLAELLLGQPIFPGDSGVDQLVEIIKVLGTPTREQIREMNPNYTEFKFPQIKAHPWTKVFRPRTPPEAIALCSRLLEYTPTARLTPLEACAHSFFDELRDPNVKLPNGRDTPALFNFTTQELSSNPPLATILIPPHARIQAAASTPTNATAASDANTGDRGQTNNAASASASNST
Assay: GSK3β kinase assay (Ser/Thr 09 peptide Z-lyte FRET);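 also: kinase activity read as coumarin to fluorescein emission ratio, 11-point threefold dilutions from 10 µM to 0.0003 µM in duplicate, unphosphorylated and phosphorylated peptide as 0% and 100% controls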
Conditions: 46 μM ATP, 1 h room temperature
property: log10(EC50) (log10 of the value in nM)
// units: nM (pre-log); metric: EC50; scale: log10

INPUT: # return recorded log10(EC50) for input O=C(Nc1cc2cc(-c3cnc4n3CCNC4)ccc2cn1)[C@H]1CCCN1
OUTPUT: 3.37

INPUT: # return recorded log10(EC50) for input Cc1ncc(-c2ccc3cnc(NC(=O)CN4CCCCC4)cc3c2)o1
OUTPUT: 2.02

INPUT: # return recorded log10(EC50) for input CC(C(=O)Nc1cc2cc(-c3cnn(C)c3)ccc2cn1)N1CCCCC1 (centres unmarked)
OUTPUT: 1.08

INPUT: # return recorded log10(EC50) for input O=C(Nc1cc2cc(-c3cnc4n3CCNC4)ccc2cn1)C1CC(F)(F)C1
OUTPUT: 1.32

INPUT: # return recorded log10(EC50) for input C[C@@H]1CCCN1CC(=O)Nc1cc2cc(-c3cnc4n3CCNC4)ccc2cn1
OUTPUT: 2.59

INPUT: # return recorded log10(EC50) for input CN1CCCC(C(=O)Nc2cc3cc(-c4cnn(C)c4)ccc3cn2)CC1 (centres unmarked)
OUTPUT: 1.75

INPUT: # return recorded log10(EC50) for input Cn1cc(-c2ccc3cnc(NC(=O)C4CCN(CCC(F)(F)F)CC4)cc3c2)nn1
OUTPUT: 0.48

INPUT: # return recorded log10(EC50) for input C[C@H]1CN(C)CCN1CC(=O)Nc1cc2cc(-c3cnn(C)c3)ccc2cn1
OUTPUT: 2.36

INPUT: # return recorded log10(EC50) for input CN1CC2(CC(C(=O)Nc3cc4cc(-c5cncn5C)ccc4cn3)C2)C1
OUTPUT: 1.62

INPUT: # return recorded log10(EC50) for input CCN(CC)CC(=O)Nc1cc2cc(-c3cnn(C)c3CN3CCCCC3)ccc2cn1
OUTPUT: 1.64

INPUT: # return recorded log10(EC50) for input [2H]c1nc(NC(=O)C2CCNCC2)cc2cc(-c3cnn(C)c3)ccc12
OUTPUT: 1.92

INPUT: # return recorded log10(EC50) for input Cn1cc(-c2cc3cc(NC(=O)C4CCN(CCF)CC4)ncc3cc2F)cn1
OUTPUT: 1.36

INPUT: # return recorded log10(EC50) for input [2H]C([2H])([2H])n1cc(-c2ccc3cnc(NC(=O)[C@H](C)N4CCCC4)cc3c2)cn1
OUTPUT: 1.53

INPUT: # return recorded log10(EC50) for input Cc1ncc(-c2ccc3cnc(NC(=O)CN4CCN(C)CC4)cc3c2)o1
OUTPUT: 2.20

INPUT: # return recorded log10(EC50) for input Cn1cc(-c2ccc3cnc(NC(=O)[C@H]4CC[C@H](N(C)C)CC4)cc3c2)nn1
OUTPUT: 1.11

INPUT: # return recorded log10(EC50) for input Cn1cc(-c2ccc3cnc(NC(=O)C4CCN(Cc5cnccn5)CC4)cc3c2)cn1
OUTPUT: 1.57

INPUT: # return recorded log10(EC50) for input CCN1CCN(CC(=O)Nc2cc3cc(-c4cnn(C)c4)ccc3cn2)CC1
OUTPUT: 2.11

====

Target: recombinant DYRK1A kinase (Homo sapiens (Human), UniProt Q13627)
Experiment: DYRK1A kinase assay (Ser/Thr 18 peptide Z-lyte FRET);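 also: Read-out is the coumarin to fluorescein emission ratio, referenced to unphosphorylated (0%) and phosphorylated (100%) Ser/Thr 18 peptide controls, values from dose-response curves by non-linear regression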
Conditions: 30 μM ATP, 1 h room temperature
property: pEC50
pEC50 here is simply -log10 of the concentration when that concentration is written in mol/L.

INPUT: GET pEC50 where system = recombinant DYRK1A kinase (Homo sapiens (Human), UniProt Q13627) and item = CC(C)CN1CCC[C@@H](C(=O)Nc2cc3cc(-c4cnn5c4CN(CCF)CC5)ccc3cn2)C1 [Compound 1002]
OUTPUT: 7.55

INPUT: GET pEC50 where system = recombinant DYRK1A kinase (Homo sapiens (Human), UniProt Q13627) and item = Cn1cc(-c2ccc3cnc(NC(=O)[C@H]4CC[C@H](CO)CC4)cc3c2)cn1 [Compound 333]
OUTPUT: 8.92

INPUT: GET pEC50 where system = recombinant DYRK1A kinase (Homo sapiens (Human), UniProt Q13627) and item = Cn1cc(-c2ccc3cnc(NC(=O)C45CC(CO)(C4)C5)cc3c2)cn1 [Compound 1083]
OUTPUT: 8.38

INPUT: GET pEC50 where system = recombinant DYRK1A kinase (Homo sapiens (Human), UniProt Q13627) and item = [2H]C([2H])([2H])n1cc(-c2ccc3cnc(NC(=O)CN4CCCCC4)cc3c2)cn1 [Compound 306]
OUTPUT: 8.14

INPUT: GET pEC50 where system = recombinant DYRK1A kinase (Homo sapiens (Human), UniProt Q13627) and item = CC(C)CN1CCC[C@H](C(=O)Nc2cc3cc(-c4cnn(C)c4)ccc3cn2)C1 [Compound 112]
OUTPUT: 7.69

INPUT: GET pEC50 where system = recombinant DYRK1A kinase (Homo sapiens (Human), UniProt Q13627) and item = O=C(Nc1cc2cc(-c3cnco3)ccc2cn1)[C@H]1CC[C@@H](N2CCOCC2)CC1 [Compound 979]
OUTPUT: 8.00

INPUT: GET pEC50 where system = recombinant DYRK1A kinase (Homo sapiens (Human), UniProt Q13627) and item = CCN1CCN(CC(=O)Nc2cc3cc(-c4cnn(C)c4)ccc3cn2)CC1 [Compound 351]
OUTPUT: 7.87

INPUT: GET pEC50 where system = recombinant DYRK1A kinase (Homo sapiens (Human), UniProt Q13627) and item = C[C@@H]1CN(CC(=O)Nc2cc3cc(-c4cnn(C)c4)ccc3cn2)C[C@H](C)O1 [Compound 344]
OUTPUT: 7.98

====

Tested on: SW480 colon carcinoma cells
Assay: Cell viability assay (CellTiter-Glo)
Assay type: cell-based, human
Conditions: Homo sapiens, SW480; read-out: percent inhibition at 10 μM
Task for the reader: assign each of the following compounds its reported inhibition at 10 µM.
Field: numeric (%). Do not append units.

INPUT: # return recorded inhibition at 10 µM for input Cc1nnc(-c2ccc3cnc(NC(=O)CN4CCCCC4)cc3c2)s1 [Compound 939]
OUTPUT: 31.6

INPUT: # return recorded inhibition at 10 µM for input CC(C)CN1CCC(F)(C(=O)Nc2cc3cc(-n4ccnn4)ccc3cn2)CC1 [Compound 1074]
OUTPUT: 25

INPUT: # return recorded inhibition at 10 µM for input Cn1cc(-c2ccc3cnc(NC(=O)CN4C5CCC4COC5)cc3c2)cn1 [Compound 347]
OUTPUT: 48.5

INPUT: # return recorded inhibition at 10 µM for input CN1CCC(C(=O)Nc2cc3cc(-c4cnc5n4CCNC5)ccc3cn2)CC1 [Compound 989]
OUTPUT: 36.4

INPUT: # return recorded inhibition at 10 µM for input Cc1ncc(-c2ccc3cnc(NC(=O)CN4CCOCC4)cc3c2)o1 [Compound 1067]
OUTPUT: 43.1

INPUT: # return recorded inhibition at 10 µM for input CN1CCC(N(C)C(=O)Nc2cc3cc(-c4cnn(C)c4)ccc3cn2)CC1 [Compound 1037]
OUTPUT: 32.7

INPUT: # return recorded inhibition at 10 µM for input Cc1nnc(-c2ccc3cnc(NC(=O)C4(F)CCCCC4)cc3c2)s1 [Compound 883]
OUTPUT: 35.5

INPUT: # return recorded inhibition at 10 µM for input CC(C)OCC(=O)Nc1cc2cc(-c3cncn3C)ccc2cn1 [Compound 1008]
OUTPUT: 37.2

INPUT: # return recorded inhibition at 10 µM for input Cn1cc(-c2ccc3cnc(NC(=O)CN4CC5CC5C4)cc3c2)cn1 (stereo not drawn) [Compound 291]
OUTPUT: 24.4

INPUT: # return recorded inhibition at 10 µM for input Cc1nnc(-c2ccc3cnc(NC(=O)C4CCN(CCC(F)(F)F)CC4)cc3c2)n1C [Compound 279]
OUTPUT: 52.4

INPUT: # return recorded inhibition at 10 µM for input Cn1cncc1-c1ccc2cnc(NC(=O)C3CNC3)cc2c1 [Compound 535]
OUTPUT: 42

INPUT: # return recorded inhibition at 10 µM for input CN1CCN(CC(=O)Nc2cc3cc(-c4cn(C)nn4)ccc3cn2)CC1 [Compound 500]
OUTPUT: 25.1

INPUT: # return recorded inhibition at 10 µM for input CC1CCN(CC(=O)Nc2cc3cc(-c4cnn(C)c4CN4CCCCC4)ccc3cn2)CC1 [Compound 851]
OUTPUT: 30.4

INPUT: # return recorded inhibition at 10 µM for input Cn1cc(-c2ccc3cnc(NC(=O)C4CCN(CC(=O)O)CC4)cc3c2)cn1 [Compound 1011]
OUTPUT: 25

INPUT: # return recorded inhibition at 10 µM for input Cn1cc(-c2ccc3cnc(NC(=O)CN4CCCCC4)cc3c2)nn1 [Compound 276]
OUTPUT: 29.6

INPUT: # return recorded inhibition at 10 µM for input C[C@@H]1CCCN1CC(=O)Nc1cc2cc(-c3cnc4n3CCNC4)ccc2cn1 [Compound 1030]
OUTPUT: 19.3

INPUT: # return recorded inhibition at 10 µM for input Cn1cncc1-c1ccc2cnc(NC(=O)C(C)(C)F)cc2c1 [Compound 517]
OUTPUT: 27.5

INPUT: # return recorded inhibition at 10 µM for input Cc1nnc(-c2cc(F)c3cnc(NC(=O)CN4CCOCC4)cc3c2)s1 [Compound 963]
OUTPUT: 49.2
